Molecular target: PDE4B (human recombinant) (Homo sapiens)
Construct: made in house
Sequence (Q07343 1-564 isoform Q07343-2): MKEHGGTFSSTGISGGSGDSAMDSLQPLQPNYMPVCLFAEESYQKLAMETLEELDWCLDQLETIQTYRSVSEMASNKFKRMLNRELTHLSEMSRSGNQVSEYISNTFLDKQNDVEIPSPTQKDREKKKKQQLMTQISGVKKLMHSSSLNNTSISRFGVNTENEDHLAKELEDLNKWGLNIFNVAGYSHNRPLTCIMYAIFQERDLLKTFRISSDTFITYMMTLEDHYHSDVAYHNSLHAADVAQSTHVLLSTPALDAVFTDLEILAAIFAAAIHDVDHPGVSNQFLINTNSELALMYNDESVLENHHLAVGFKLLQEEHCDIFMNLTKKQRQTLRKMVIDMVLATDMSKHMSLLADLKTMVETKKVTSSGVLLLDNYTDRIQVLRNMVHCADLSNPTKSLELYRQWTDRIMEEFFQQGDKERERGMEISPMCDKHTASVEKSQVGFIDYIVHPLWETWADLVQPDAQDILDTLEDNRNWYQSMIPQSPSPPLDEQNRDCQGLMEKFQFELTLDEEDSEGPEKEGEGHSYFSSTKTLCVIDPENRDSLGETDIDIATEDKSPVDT
Assay: Inhibition of PDE4B activity: SPA and/or Fluorescence Polarisation (FP) assay
Type: biochemical
Conditions: one reading (n=1) or average of 2 or more readings, read-out: PDE4B pIC50 (±about 0.5) (converted)
Experimental: The ability of compounds to inhibit catalytic activity at PDE4B or 4D (human recombinant), PDE3 (from bovine aorta), PDE5 (human recombinant) or PDE6 (from bovine retina) can optionally be determined by Scintillation Proximity Assay (SPA) in a 96-well format. The enzyme concentration is adjusted so that no more than 20% hydrolysis of the substrate defined below occurs in control wells without compound, during the incubation. […] Results are expressed as pIC50 values. […]
recorded-endpoint: IC50

Observe how each entry below is paired with its result.
Q. Item under review: "CCc1nc2c(cnn2CC)c(NC2CCOCC2)c1CNC(=O)c1cnco1" . Reported IC50?
A. 0.126 to 1 nM

Q. Try this molecule next: "CCc1nc2c(cnn2CC)c(NC2CCOCC2)c1CN1Cc2nnsc2C1=O"
A. 0.126 to 1 nM

Q. Try this molecule next: "CCOc1ncccc1C(=O)NCc1c(CC)nc2c(cnn2CC)c1NC1CCOCC1"
A. 0.01 to 0.1 nM

Q. Try this molecule next: "CCOc1ccccc1C(=O)NCc1c(C)nc2c(cnn2CC)c1NC1CCOCC1"
A. 0.126 to 1 nM

Q. Try this molecule next: "CCc1nc2c(cnn2CC)c(NC2CCOCC2)c1CNC(=O)c1ccc(C)cc1O"
A. 0.01 to 0.1 nM

Next:
Q. Item under review: "CCc1nc2c(cnn2CC)c(NC2CCOCC2)c1CNC(=O)c1cnc(C)nc1" . Reported IC50?
A. 0.126 to 1 nM

Q. Try this molecule next: "CCn1ncc2c(NC3CCOCC3)c(CNC(=O)c3cccc(N(C)C)c3)cnc21"
A. 0.126 to 1 nM

Q. Try this molecule next: "CCc1nc2c(cnn2CC)c(NC2CCOCC2)c1CNC(=O)c1cccc2c1OCC2"
A. 0.01 to 0.1 nM

Q. Try this molecule next: "CCc1nc2c(cnn2CC)c(NC2CCOCC2)c1CNC(=O)c1cncnc1"
A. 0.126 to 1 nM

Q. Try this molecule next: "CCn1ncc2c(NC3CCOCC3)c(CNC(=O)c3ccc(F)cc3)c(C)nc21"
A. 0.126 to 1 nM

Q. Try this molecule next: "CCc1nc2c(cnn2CC)c(NC2CCN(C(N)=O)CC2)c1CNC(=O)c1ccc(N2CCOCC2)cc1"
A. 0.01 to 0.1 nM

Q. Try this molecule next: "CCc1nc2c(cnn2CC)c(NC2CCOCC2)c1CNC(=O)c1ccc(C(F)(F)F)o1"
A. 0.01 to 0.1 nM

---

biological target: PDE4B (human recombinant) (Homo sapiens); construct: made in house; assay: Inhibition of PDE4B activity: SPA and/or Fluorescence Polarisation (FP) assay; assay type: biochemical; conditions: one reading (n=1) or average of 2 or more readings, read-out: PDE4B pIC50 (±about 0.5) (converted)
Below, each entry is listed alongside its reported IC50.

Observe how each entry below is paired with its result.
Q. Item under review: "CCc1nc2c(cnn2CC)c(NC2CCN(C(N)=O)CC2)c1CNC(=O)c1ccccc1F" . Reported IC50?
A. 0.01 to 0.1 nM

Q. Try this compound next: "CCc1nc2c(cnn2CC)c(NC2CCOCC2)c1CNS(=O)(=O)C(C)C"
A. 0.126 to 1 nM

Q. Try this compound next: "CCc1nc2c(cnn2CC)c(NC2CCOCC2)c1CNC(=O)c1ccc2ccccc2c1"
A. 0.126 to 1 nM

Q. Try this compound next: "CCn1ncc2c(NC3CCOCC3)c(CNC(=O)c3ccc(NC(C)=O)cc3O)c(C)nc21"
A. 0.01 to 0.1 nM

Q. Try this compound next: "CCn1ncc2c(NC3CCOCC3)c(CN3Cc4ccc(C(F)(F)F)cc4C3=O)c(C)nc21"
A. 0.01 to 0.1 nM

Q. Try this compound next: "CCc1nc2c(cnn2CC)c(NC2CCOCC2)c1CNC(=O)c1ccc(NC(C)=O)cc1OC"
A. 0.01 to 0.1 nM

Q. Try this compound next: "CCc1nc2c(cnn2CC)c(NC2CCOCC2)c1CN1CCN(C)C1=O"
A. 0.126 to 1 nM

Q. Try this compound next: "CCc1nc2c(cnn2CC)c(NC2CCOCC2)c1CNC(=O)c1cccc(N2CCCC2=O)c1"
A. 0.01 to 0.1 nM

Next:
Q. Item under review: "CCn1ncc2c(NC3CCOCC3)c(CN3Cc4ccccc4C3=O)c(C)nc21" . Reported IC50?
A. 0.126 to 1 nM

Q. Try this compound next: "CCn1ncc2c(NC3CCOCC3)c(CNC(=O)c3ccc(C(C)C)cc3)c(C)nc21"
A. 0.01 to 0.1 nM

Q. Try this compound next: "CCc1nc2c(cnn2CC)c(NC2CCOCC2)c1CN1Cc2ccc(C(F)(F)F)cc2C1=O"
A. 0.01 to 0.1 nM
